test system: Staphylococcus aureus; test: Antibacterial activity against Staphylococcus aureus ATCC 29213 incubated for 24 hrs by microtiter plate method; type: functional; details: Staphylococcus aureus, ATCC 29213, read-out: MIC
Square brackets hold non-standard residues; d marks the D form. Peptide text beside a SMILES is read from it. Dip = N[C@H](C(=O)O)C(c1ccccc1)c1ccccc1; 2Nal = N[C@@H](Cc1ccc2ccccc2c1)C(=O)O
Item-by-item account of MIC
Note: state the figure and append the unit.

Compound	Study target	MIC
N=C(N)NCCC[C@@H]1NC(=O)[C@H](CCCNC(=N)N)NC(=O)[C@H](Cc2ccc3ccccc3c2)NC(=O)[C@H](Cc2ccc3ccccc3c2)NC(=O)[C@H](Cc2ccc3ccccc3c2)NC(=O)[C@H](CCCNC(=N)N)NC1=O (cyclo([2Nal][2Nal][2Nal]RRR))	Staphylococcus aureus	3.1 µg/mL

Hello, I am looking for reported MIC with Staphylococcus aureus for NCCCC[C@@H]1NC(=O)[C@H](CCCCN)NC(=O)[C@H](CCCCN)NC(=O)[C@H](C(c2ccccc2)c2ccccc2)NC(=O)[C@H](C(c2ccccc2)c2ccccc2)NC(=O)[C@H](C(c2ccccc2)c2ccccc2)NC(=O)[C@H](CCCCN)NC(=O)[C@H](CCCCN)NC1=O (cyclo([Dip][Dip][Dip]KKKKK)) . Could you help?
6.2 µg/mL

Would you mind doing N=C(N)NCCC[C@H](NC(=O)[C@H](CCCNC(=N)N)NC(=O)[C@H](Cc1ccc2ccccc2c1)NC(=O)[C@H](Cc1ccc2ccccc2c1)NC(=O)[C@H](CCCNC(=N)N)NC(=O)[C@@H](N)CCCNC(=N)N)C(=O)N[C@@H](Cc1ccc2ccccc2c1)C(=O)O (H-RR[2Nal][2Nal]RR[2Nal]-OH) as well?
12.5 µg/mL

Cool, now N=C(N)NCCC[C@H](NC(=O)[C@H](CCCNC(=N)N)NC(=O)[C@@H](N)CCCNC(=N)N)C(=O)N[C@@H](CCCNC(=N)N)C(=O)N[C@H](C(=O)N[C@H](C(=O)O)C(c1ccccc1)c1ccccc1)C(c1ccccc1)c1ccccc1 (H-RRRR[Dip][Dip]-OH)
12.5 µg/mL
